Provenance of the data: patent US20160008297A1

Biological target: PAR-2 (Homo sapiens)
Construct: Human embryonic kidney 293 cells (HEK293) endogenously expressing PAR-2; endogenous in cells; host or cells: HEK293
Sequence (P55085 26-397): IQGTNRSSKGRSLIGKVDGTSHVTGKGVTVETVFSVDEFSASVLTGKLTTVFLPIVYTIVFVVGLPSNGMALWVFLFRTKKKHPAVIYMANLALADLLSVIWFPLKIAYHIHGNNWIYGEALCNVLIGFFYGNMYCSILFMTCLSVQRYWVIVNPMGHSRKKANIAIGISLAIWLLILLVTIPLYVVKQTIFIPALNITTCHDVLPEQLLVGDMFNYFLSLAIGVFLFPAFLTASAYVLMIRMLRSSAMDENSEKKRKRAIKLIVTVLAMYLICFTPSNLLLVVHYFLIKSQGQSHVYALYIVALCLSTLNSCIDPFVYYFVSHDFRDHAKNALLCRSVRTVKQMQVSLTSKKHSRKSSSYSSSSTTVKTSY
Assay: Cell-based calcium assay (Fluo-4 AM) for PAR-2 antagonists, SLIGRL-evoked signal
Details: in the presence of 2 μM SLIGRL, HEK293 cells; read-out: IC50 of PAR-2 antagonism (inhibition of SLIGRL induced PAR-2 activation)
pIC50: −log10 of the molar value.
READOUT_NAME: pIC50

Record excerpt, results attached:
1. COc1cc(/C=C/C(=O)CC(=O)/C=C/c2ccc(O)c(OC)c2)ccc1O    4.00 to 4.60
2. COc1cc(CCC(=O)CC(=O)CCc2ccc(O)c(OC)c2)ccc1O    4.00 to 4.60
3. COc1ccc(CCC(=O)CC(=O)CCc2ccc(OC)cc2)cc1    4.17

Proceed to the following item.
Reported pIC50 for `COc1ccc(/C=C/C(=O)CC(=O)/C=C/c2ccc(OC)cc2)cc1` was 4.00 to 4.60
